Ref: PubChem BioAssay (NCI)

System: NCI-H522 lung
experiment-notes: NCI-60 one-dose screen, 48 h (100 = growth as untreated, 0 = no growth, -100 = all killed)
measurement-parameters: 10 µM unless noted
About 83,000 compounds went through this panel and 20% of them were active in at least one assay; those are over-represented in the sample as a whole.
I'd appreciate it if you could supply growth values for the items below.
Give bare numbers, in %.

Sample answers from the record:
{"columns": ["compound", "assayed-system", "unit-string", "growth"],
 "data": [
  ["CCCc1cc(=O)oc2c3c(c4c(c12)OC(C)(C)C=C4)O[C@@H](C)[C@H](C)C3=O", "NCI-H522 lung", "%", 71.9],
  ["O=[N+]([O-])c1cccc(/C=C/c2ccccn2)c1", "NCI-H522 lung", "%", 72.1],
  ["O=C(/C=C/C12c3ccccc3C(c3ccccc31)C1C(=O)NC(=O)C12)c1ccccc1 (stereo not given)", "NCI-H522 lung", "%", 39.1],
  ["NC(N)=N/N=C/c1ccc(Br)cc1", "NCI-H522 lung", "%", 40]
]}

Please find the next compound below.
Ask | Which growth value belongs to `Nc1ccc(CCCCc2ccccc2)c(Cl)c1` ?
Reply | 71.1

* * *

I'd appreciate it if you could supply growth values for the items below.
System: K-562 leukemia
experiment-notes: NCI-60 one-dose screen, 48 h (100 = growth as untreated, 0 = no growth, -100 = all killed)
measurement-parameters: 10 µM unless noted
The panel holds about 83,000 compounds, 20% with a hit somewhere; the sample as a whole holds those more often.
Answers are plain numbers, in %.

{"columns": ["compound", "unit-string", "growth"],
 "data": [
  ["COc1cc(-c2cc(-c3ccc(Nc4nc(Nc5ccccc5)nc(Nc5ccc(Cl)cc5)n4)cc3)nc(N)n2)cc(OC)c1OC", "%", 23.8],
  ["CCCCNC(=O)NS(=O)(=O)c1ccc(N2N=C(c3ccc(C)cc3C)CC2c2ccc(N(C)C)cc2)cc1 (centres undefined)", "%", 44.4],
  ["Cc1[nH]c(-c2nc3ccccc3[nH]2)c(C)c1C(=O)N1CCOCC1", "%", 106]
]}

Go through the items and report each one's growth.
1. CN1CCN(C(=O)[C@@]2(C)CC[C@]3(C)CC[C@]4(C)C(=CC[C@@H]5[C@@]6(C)C/C(=C/c7ccncc7)C(=O)C(C)(C)[C@@H]6CC[C@]54C)[C@@H]3C2)CC1
2. COc1ccc(OC)c(Nc2nc3nonc3nc2Nc2cc(OC)ccc2OC)c1
3. CCN1CCN(c2ccc(Nc3cc(-c4cccnc4Nc4c(Cl)c(OC)cc(OC)c4Cl)ncn3)cc2)CC1
4. Cc1nc(Nc2ccc(NC(=S)Nc3ccccc3)cc2)nc2nc(SCc3ccccc3)[nH]c(=O)c12
5. Cc1[nH]c(-c2nc3ccccc3[nH]2)c(C)c1C(=O)NNc1ccc(Cl)cc1
6. Nc1nc(N)c(-c2ccc(Cl)cc2)c(/C=C/c2ccc([N+](=O)[O-])cc2)n1

Reply |
1: 7.71; 2: 75.5; 3: 44.5; 4: 72.1; 5: 94.1; 6: 19.4

* * *

System: OVCAR-3 ovarian
experiment-notes: NCI-60 one-dose screen, 48 h (100 = growth as untreated, 0 = no growth, -100 = all killed)
measurement-parameters: 10 µM unless noted
Compounds without any hit were thinned out: in the full panel of roughly 83,000, 20% have a hit.
assay-metric: growth (%)
Answers are plain numbers, in %.

Sample answers from the record:
{"columns": ["compound", "test-value"],
 "data": [
  ["O=C1c2cccc3c(-c4ccc(-c5nc6c7ccccc7c7ccccc7c6[nH]5)cc4)ccc(c23)C(=O)N1CCN1CCNCC1", 91.5],
  ["CCOC(=O)C1=C(C)NC(SCc2nnc(-c3ccc(Cl)cc3)o2)=NC1c1ccc(Cl)cc1Cl (centres undefined)", 62.8]
]}

Go through the items and report each one's growth.
1. COc1ccc(Oc2nc(Nc3ccc(N4CCOCC4)nc3)ncc2NC(=O)c2cc(OC)cc(OC)c2)cc1
2. COc1cc2c(cc1OC)-c1ccc3cc4c(cc3c1N(CCCN(C)C)C2)OCO4

Reply |
1. 82.7
2. 48

* * *

System: HCT-116 colon
experiment-notes: NCI-60 one-dose screen, 48 h (100 = growth as untreated, 0 = no growth, -100 = all killed)
measurement-parameters: 10 µM unless noted
About 83,000 compounds went through this panel and 20% of them were active in at least one assay; those are over-represented in the sample as a whole.
assay-metric: growth (%)
Numbers only, in %.

Sample answers from the record:
{"columns": ["molecule", "assayed-system", "growth [%]"],
 "data": [
  ["N#Cc1cnn2c(-c3ccc(Cl)cc3)nc(NCCc3ccccc3)nc12", "HCT-116 colon", 81.5],
  ["CCCCCCCCN(CCCCCCCC)C(=N)c1ccnc2ccccc12", "HCT-116 colon", -92.3],
  ["CCCNCC(=O)Nc1ccc(C(=O)OC(C)(C)CC)cc1", "HCT-116 colon", 84.1],
  ["COC1(CC[C@@H](C)COC2OC(CO)C(O)C(O)C2O)O[C@H]2C[C@H]3[C@@H]4CC=C5C[C@@H](OC6OC(CO)C(OC7OC(C)C(O)C(O)C7O)C(O)C6OC6OC(C)C(O)C(O)C6O)CC[C@]5(C)[C@H]4CC[C@]3(C)[C@H]2[C@@H]1C (some centres not stated)", "HCT-116 colon", -86.1]
]}

Go through the items and report each one's growth.
1. C=C1C(=O)O[C@H]2[C@H]1CC/C(COC(=O)/C=C/C(=O)NCc1ccc(Cn3c(=O)sn(-c4ccccc4)c3=O)cc1)=C\CC[C@@]1(C)O[C@@H]21
2. CN1CCN(c2ccc3nc(/N=C/c4ccc5sc(-c6ccc([N+](=O)[O-])cc6)nc5c4)sc3c2)CC1
3. CC/C=C/[C@@H]1C=C[C@@H]2CCC[C@H]2[C@@H]1CC[C@H](O)[C@H](C)N
4. CCOC(=O)c1c(C)[nH]c(C(=O)CCC(=O)OC)c1C
5. Cc1c(Cl)cccc1NS(=O)(=O)c1ccccc1
6. O=S(=O)(Nc1ccsc1-c1nc(-c2ccccc2)no1)c1cc(Cl)cc(Cl)c1
7. CN(C)S(=O)(=O)n1cnc([C@@H]2[C@@H]3C(=O)OC[C@@H]3C[C@]23N=CN(Cc2ccccc2)C3=O)c1

Reply |
1: -79.1; 2: 107; 3: -76.2; 4: 81; 5: 104; 6: 89.9; 7: 100

* * *

I'd appreciate it if you could supply growth values for the items below.
System: HS 578T breast
experiment-notes: NCI-60 one-dose screen, 48 h (100 = growth as untreated, 0 = no growth, -100 = all killed)
measurement-parameters: 10 µM unless noted
The panel holds about 83,000 compounds, 20% with a hit somewhere; the sample as a whole holds those more often.
Answers are plain numbers, in %.

{"columns": ["compound-structure-string", "growth, %"],
 "data": [
  ["O=C1Nc2ccc(Cl)cc2/C1=N/N=C/c1c[nH]c2ccccc12", 22]
]}

Go through the items and report each one's growth.
1. Clc1ccc(/C=N\N=c2\scc(-c3ccc(Cl)cc3)n2/N=C/c2ccc(Cl)cc2)cc1
2. CC(C)(C)c1ccc(C(=O)Nc2sc3c(c2C(N)=O)CCC(=O)C3)cc1
3. COc1ccc(NC(=O)C(=O)c2c[nH]c3ccc(F)cc23)cc1

Reply |
1: 96.5; 2: -12; 3: 104

* * *

Tested on: UO-31 renal
experiment-notes: NCI-60 one-dose screen, 48 h
measurement-parameters: 10 µM unless noted
This is part of a sample that, as a whole, favours compounds with a hit. Of some 83,000 tested, about 20% had one in any assay. Calls of active or inactive are those of the source. How the source made its calls: active means growth percent below 10; inactive means the rest.
A correct response names exactly one class from true (1) for active, false (0) for inactive

Worked cases, answers included:
{"columns": ["compound", "answer-label"],
 "data": [
  ["CCN(CCO)CC(=O)c1cc(Cl)cc(Cl)c1Cl", "false (0)"],
  ["COc1cc(/C=C2\\C=C(c3ccccc3)N(CCc3ccccc3)C2=O)cc(OC)c1OC", "false (0)"],
  ["O=C(NCOC(O)C(Cl)(Cl)Cl)NCOC(O)C(Cl)(Cl)Cl (stereo not drawn)", "false (0)"],
  ["COc1ccc(/C=C(\\C#N)n2nnc3cc(F)c(F)cc32)c(OC)c1OC", "false (0)"],
  ["Cc1cc(C)on1", "false (0)"]
]}

Ask | Which result was noted for this compound in the test: `Cc1nn(Cc2ccccc2)cc1C(=O)Nc1sc2c(c1C(N)=O)CCC(=O)C2`
Reply | false (0)

Ask | Which result was noted for this compound in the test: `CCCNCC(=O)Nc1ccc(C(=O)OC(C)(C)CC)cc1`
Reply | false (0)

Ask | Which result was noted for this compound in the test: `C=C1C(=O)O[C@H]2[C@H]1CC/C(COC(=O)/C=C\C(=O)NCc1ccc(Cn3c(=O)sn(CCCC)c3=O)cc1)=C\CC[C@@]1(C)O[C@@H]21`
Reply | true (1)

Ask | Which result was noted for this compound in the test: `Nc1ccc(S(=O)(=O)Nc2ccsc2-c2nc(-c3ccccc3)no2)cc1`
Reply | false (0)

Ask | Which result was noted for this compound in the test: `CC(=O)c1cc2c(o1)C(=O)c1ccccc1C2=O`
Reply | true (1)
